- Test system: CP250
- ASSAY TEXT: qHTS profiling for inhibitors of Plasmodium falciparum proliferation (AID 504749); further: nearly all actives have a fitted effect of over 60% in size
- RECORDED CONDITIONS: P. falciparum in erythrocytes, SYBR Green DNA, 72 h; series mostly up to 28.7 µM
Inconclusive results are not listed. The source made the active and inactive calls. The call rests on the fitted dose curve; in most records, active means well fitted inhibition curve with a large enough effect; inconclusive means small, poorly fitted or top-dose-only effect; inactive means flat fitted curve, though single readings scatter.
Assign a class; possible classes are active, inactive

Example entries and their recorded answers appear below.
* CCC(=O)c1ccc2c(c1)N(CCCN(C)C)c1ccccc1S2 | inactive
* Cc1nc2ccccn2c(=O)c1CCN1CCC(C(=O)c2ccc(F)cc2)CC1 | inactive
* NC(N)=NC(=O)Cc1c(Cl)cccc1Cl | active

Shift focus to the following entry.
Task: Lab log entry: O=C(CCCN1CCC(O)(c2cccc(C(F)(F)F)c2)CC1)c1ccc(F)cc1 — outcome as called in the assay?
Result: active

---

- System: NIH3T3
- ASSAY TEXT: Cytotoxic Profiling of Annotated Libraries Using Quantitative High-Throughput Screening (AID 1296008); further: on the % scale 0 is the no-effect control and ±100 the full control effect; nearly all actives have a fitted effect of over 60% in size
- RECORDED CONDITIONS: Five cell lines viability, CellTiter-Glo ATP luminescence, 48-72 h; stronger effect = lower value
Records with an inconclusive call do not appear.
Readings of max response for the listed compounds
All answers are understood in %, so give the number only.

Some compounds with known max response results, for comparison:
* O=C(CCNNC(=O)c1ccncc1)NCc1ccccc1 | -21.8
* C[N+](C)(C)CCOC(N)=O | -0.0921
* COC(=O)[C@@H](N)Cc1ccc(O)c(O)c1 | -6.82

Task: Complete the entry with the larger response for O=C1CC2(CCCC2)CC(=O)N1CCCCN1CCN(c2ncccn2)CC1
Result: -6.17

Task: Complete the entry with the larger response for FC(F)(F)c1ccccc1-n1ccnc1
Result: -5.68

Task: Complete the entry with the larger response for NC(N)=N/N=C/c1c(Cl)cccc1Cl
Result: 3.93

Task: Complete the entry with the larger response for CCOC(=O)C1=C(C)NC(C)=C(C(=O)OC)C1c1cccc([N+](=O)[O-])c1 (stereo not given)
Result: -0.464

Task: Complete the entry with the larger response for CCN1CCC[C@H]1CNC(=O)c1c(O)c(Cl)cc(Cl)c1OC
Result: 1.49

Task: Complete the entry with the larger response for Cc1nc2ccccn2c(=O)c1CCN1CCC(C(=O)c2ccc(F)cc2)CC1
Result: -5.4

Task: Complete the entry with the larger response for CCCC(C(=O)OCCN(CC)CC)(c1ccccc1)c1ccccc1
Result: -27.5

Task: Complete the entry with the larger response for CN1C(=O)CC[C@H]1c1cccnc1
Result: -5.17

Task: Complete the entry with the larger response for C=CCc1ccccc1OCC(O)CNC(C)C (stereo not given)
Result: -0.59

Task: Complete the entry with the larger response for NC(=O)c1cn(Cc2c(F)cccc2F)nn1
Result: -0.364

---

- MEASURED TARGET: Tyrosine-protein phosphatase non-receptor type substrate 1 (Homo sapiens) + Leukocyte surface antigen CD47 (Homo sapiens) (UniProt P78324+Q08722)
- Sequence (P78324 whole entry, looked up, the tested form may be a part): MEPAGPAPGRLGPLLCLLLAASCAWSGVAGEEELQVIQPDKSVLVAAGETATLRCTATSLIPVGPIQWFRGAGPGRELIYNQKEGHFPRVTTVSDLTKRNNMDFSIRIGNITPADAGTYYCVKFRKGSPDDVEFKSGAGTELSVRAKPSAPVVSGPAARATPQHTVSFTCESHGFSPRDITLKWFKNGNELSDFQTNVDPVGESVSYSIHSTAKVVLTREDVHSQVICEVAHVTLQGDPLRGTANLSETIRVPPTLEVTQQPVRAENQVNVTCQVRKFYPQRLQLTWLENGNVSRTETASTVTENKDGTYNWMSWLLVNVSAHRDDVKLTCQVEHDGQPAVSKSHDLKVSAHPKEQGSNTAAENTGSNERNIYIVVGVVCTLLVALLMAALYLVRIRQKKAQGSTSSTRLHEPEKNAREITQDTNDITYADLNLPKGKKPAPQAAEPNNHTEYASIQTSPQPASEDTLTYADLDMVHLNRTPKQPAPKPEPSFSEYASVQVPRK
- Sequence (Q08722 whole entry, looked up, the tested form may be a part): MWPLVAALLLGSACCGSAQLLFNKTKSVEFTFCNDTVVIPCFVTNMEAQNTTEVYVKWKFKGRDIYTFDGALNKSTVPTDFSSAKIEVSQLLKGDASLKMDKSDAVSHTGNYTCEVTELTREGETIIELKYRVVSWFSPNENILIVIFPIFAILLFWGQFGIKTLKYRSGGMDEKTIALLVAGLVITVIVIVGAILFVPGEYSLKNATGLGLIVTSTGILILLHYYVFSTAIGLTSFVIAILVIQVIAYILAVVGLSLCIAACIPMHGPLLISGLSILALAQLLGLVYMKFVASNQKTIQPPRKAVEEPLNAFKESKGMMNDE
- ASSAY TEXT: CD47-SIRPalpha protein protein interaction - HTRF assay qHTS validation (AID 1347058);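 further: recombinant soluble extracellular CD47 with His tag and biotinylated SIRPalpha domains; 0% is about no effect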
- RECORDED CONDITIONS: TR-FRET HTRF CD47-His / biotin-SIRPalpha binding, ratio 665/615; series mostly up to 38.3 µM
Inconclusive results are not listed. The source made the active and inactive calls. Calls come from the whole dose curve; as a rule, active = well fitted curve in the direction sought with a large enough effect in the signal ratio (not every such curve was filed as active); inconclusive = small, poorly fitted or top-dose-only effect, or effect the other way, or a change in a side signal; inactive = no such curve, though single readings can be large or run the other way; the % refers to the signal ratio.
QUANTITY: outcome

- CCCCCN(CCCCC)C(=O)C(CCC(=O)O)NC(=O)c1ccc(Cl)c(Cl)c1 (stereo not drawn): inactive
- Nc1ncn([C@@H]2O[C@H](CO)[C@@H](O)[C@H]2O)c(=O)n1: inactive
- CCCN1C[C@H](CSC)C[C@@H]2c3cccc4[nH]cc(c34)C[C@H]21: inactive

---

- ASSAY TEXT: S16 Schwann cell PMP22 intronic element firefly luciferase assay (AID 624032); further: nearly all actives have a fitted effect of over 30% in size
- RECORDED CONDITIONS: S16 rat Schwann cells, PMP22 element FLuc, 24 h; series mostly up to 57.5 µM
Results filed as inconclusive are left out. Active and inactive are the calls of the source. Calls come from the whole dose curve; as a rule, active = well fitted inhibition curve with a large enough effect; inconclusive = small, poorly fitted or top-dose-only effect; inactive = no such curve, though single readings can be large or run the other way.
Assign a class; possible classes are Y = active, N = inactive

Example entries and their recorded answers appear below.
• Cc1cc(C)c(/C=C2\C(=O)Nc3ccccc32)[nH]1 = N
• CCCCNC(=O)NS(=O)(=O)c1ccc(C)cc1 = N
• NC/C=C/C(=O)O = N
• NC(Cc1ccc(Cl)cc1)C(=O)O (stereo unspecified) = N
• CCNC(=O)N1CCN(CCCC(c2ccc(F)cc2)c2ccc(F)cc2)CC1 = Y
• C[n+]1cc2c3c(ccc2c2ccc4cc5c(cc4c21)OCO5)OCO3 = Y
• CCN(CC)CCOCCOC(=O)C1(c2ccccc2)CCCC1 = N
• c1cnc(N2CCN(Cc3ccc4c(c3)OCO4)CC2)nc1 = N

Task: Lab log entry: CN(C)CCN(Cc1cccs1)c1ccccn1 — outcome as called in the assay?
Result: N

Task: Lab log entry: CC(C)[N+](C)(CCOC(=O)C1c2ccccc2Oc2ccccc21)C(C)C — outcome as called in the assay?
Result: N

Task: Lab log entry: CCn1nc(C(=O)O)c(=O)c2cc3c(cc21)OCO3 — outcome as called in the assay?
Result: N

Task: Lab log entry: NC1=NCC2c3ccccc3Cc3ccccc3N12 (stereo unspecified) — outcome as called in the assay?
Result: N

Task: Lab log entry: CCCC(C(=O)OCCN(CC)CC)(c1ccccc1)c1ccccc1 — outcome as called in the assay?
Result: N

Task: Lab log entry: C=CCc1ccccc1OCC(O)CNC(C)C (stereo unspecified) — outcome as called in the assay?
Result: N

---

- Test system: AA1029
- ASSAY TEXT: qHTS profiling for inhibitors of Plasmodium falciparum proliferation (AID 504749); further: nearly all actives have a fitted effect of over 60% in size; further: potency means the concentration at half of the fitted maximal effect
- RECORDED CONDITIONS: P. falciparum in erythrocytes, SYBR Green DNA, 72 h; series mostly up to 28.7 µM
Records with an inconclusive call do not appear. Active and inactive are the calls of the source. Calls follow the shape of the dose curve; as a rule, active = well fitted inhibition curve with a large enough effect; inconclusive = small, poorly fitted or top-dose-only effect; inactive = flat fitted curve, though single readings scatter.
QUANTITY: Potency

- O=C1CC2(CCCC2)CC(=O)N1CCCCN1CCN(c2ncccn2)CC1: inactive
- c1cnc(N2CCN(Cc3ccc4c(c3)OCO4)CC2)nc1: inactive
- CCCOc1ccccc1-c1nc2n[nH]nc2c(=O)[nH]1: inactive
- CCCC(C(=O)OCCN(CC)CC)(c1ccccc1)c1ccccc1: 11.2 µM (active)

---

- ASSAY TEXT: qHTS for differential inhibitors of proliferation of Plasmodium falciparum line 3D7 (AID 1876)
- RECORDED CONDITIONS: P. falciparum 3D7 proliferation inhibition; series mostly up to 28.7 µM
Inconclusive results are not listed. The source made the active and inactive calls. Calls come from the whole dose curve; as a rule, active = well fitted curve in the direction sought with a large enough effect; inconclusive = small, poorly fitted or top-dose-only effect, or another doubt; inactive = no such curve, though single readings can be large or run the other way.
Assign a class; possible classes are active, inactive

Example entries and their recorded answers appear below.
- CC(C)NCC(O)c1cc(O)cc(O)c1 (configuration not stated): inactive
- O=c1[nH]c(=O)n([C@H]2C[C@H](O)[C@@H](CO)O2)cc1Br: inactive
- CN(C)C(=O)Oc1cccc([N+](C)(C)C)c1: inactive
- C[N+](C)(C)CCOC(=O)CCC(=O)OCC[N+](C)(C)C: inactive
- CC(=O)[C@]1(O)Cc2c(O)c3c(c(O)c2[C@@H](O[C@H]2C[C@H](N)[C@H](O)[C@H](C)O2)C1)C(=O)c1ccccc1C3=O: active
- C#CCN(C)CCCOc1ccc(Cl)cc1Cl: inactive

Shift focus to the following entry.
Task: Lab log entry: Cc1nc2ccccn2c(=O)c1CCN1CCC(C(=O)c2ccc(F)cc2)CC1 — outcome as called in the assay?
Result: active

---

- ASSAY TEXT: qHTS for differential inhibitors of proliferation of Plasmodium falciparum line Dd2 (AID 1882); further: nearly all actives have a fitted effect of over 65% in size; further: potency means the concentration at half of the fitted maximal effect
- RECORDED CONDITIONS: Plasmodium falciparum Dd2 proliferation inhibition; series mostly up to 28.7 µM
Results filed as inconclusive are left out. The source made the active and inactive calls. The call rests on the fitted dose curve; in most records, active means well fitted inhibition curve with a large enough effect; inconclusive means small, poorly fitted or top-dose-only effect; inactive means flat fitted curve, though single readings scatter.
QUANTITY: Potency

Some compounds with known Potency results, for comparison:
* CO[C@@]1(NC(=O)CSCC#N)C(=O)N2C(C(=O)O)=C(CSc3nnnn3C)CS[C@@H]21 | inactive
* C(=C\c1ccccc1)/CN1CCN(C(c2ccccc2)c2ccccc2)CC1 | 11.2 µM (active)
* NC/C=C/C(=O)O | inactive
* CCN(CC)CCNC(=O)c1ccc(NC(C)=O)cc1 | inactive

Task: Complete the entry with Potency for N[C@@H](COP(=O)(O)O)C(=O)O
Result: inactive

Task: Complete the entry with Potency for O=C(O)CN(CCOCCOCCN(CC(=O)O)CC(=O)O)CC(=O)O
Result: inactive

Task: Complete the entry with Potency for CCNC(=O)N1CCN(CCCC(c2ccc(F)cc2)c2ccc(F)cc2)CC1
Result: 3.16 µM (active)

Task: Complete the entry with Potency for O=C(O)CP(=O)(O)O
Result: inactive

Task: Complete the entry with Potency for CCCN(CCC)CCc1cccc2c1CC(=O)N2
Result: inactive

Task: Complete the entry with Potency for CC(C)(C)NCC(O)c1cc(O)cc(O)c1 (configuration not stated)
Result: inactive

Task: Complete the entry with Potency for Fc1ccc(C(c2ccc(F)cc2)N2CCN(C/C=C/c3ccccc3)CC2)cc1
Result: 12.6 µM (active)

Task: Complete the entry with Potency for CC1=NS(=O)(=O)c2cc(Cl)ccc2N1
Result: inactive

Task: Complete the entry with Potency for NC(=O)N1c2ccccc2C=Cc2ccccc21
Result: inactive

Task: Complete the entry with Potency for CC[N+](C)(C)c1cccc(O)c1
Result: inactive

Task: Complete the entry with Potency for CN1CCN(CC(=O)N2c3ccccc3C(=O)Nc3cccnc32)CC1
Result: inactive

Task: Complete the entry with Potency for COCC(=O)O[C@]1(CCN(C)CCCc2nc3ccccc3[nH]2)CCc2cc(F)ccc2[C@@H]1C(C)C
Result: 1.26 µM (active)

Task: Complete the entry with Potency for CCCOc1ccccc1-c1nc2n[nH]nc2c(=O)[nH]1
Result: inactive

Origin of values: PubChem BioAssay (NCATS)
